Attribution: ChEMBL document CHEMBL1909046

- EXPERIMENTAL_SYSTEM: Acetylcholinesterase (Homo sapiens)
- Sequence (P22303 whole entry): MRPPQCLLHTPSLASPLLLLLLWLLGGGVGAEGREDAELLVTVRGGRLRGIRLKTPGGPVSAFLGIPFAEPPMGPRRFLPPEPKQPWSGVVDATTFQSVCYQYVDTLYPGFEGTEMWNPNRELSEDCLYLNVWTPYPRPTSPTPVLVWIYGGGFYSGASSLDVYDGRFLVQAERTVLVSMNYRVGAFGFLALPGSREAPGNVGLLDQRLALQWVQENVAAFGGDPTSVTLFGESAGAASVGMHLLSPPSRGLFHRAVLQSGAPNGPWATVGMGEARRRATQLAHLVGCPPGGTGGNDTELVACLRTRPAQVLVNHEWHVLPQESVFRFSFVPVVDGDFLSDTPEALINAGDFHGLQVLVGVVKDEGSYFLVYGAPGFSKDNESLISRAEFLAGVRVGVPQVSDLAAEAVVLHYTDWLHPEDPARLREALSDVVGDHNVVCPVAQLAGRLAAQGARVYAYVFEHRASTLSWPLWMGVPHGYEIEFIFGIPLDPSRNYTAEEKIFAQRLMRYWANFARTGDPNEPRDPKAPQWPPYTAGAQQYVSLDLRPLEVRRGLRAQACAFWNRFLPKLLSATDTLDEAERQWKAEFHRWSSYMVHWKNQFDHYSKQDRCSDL
- ASSAY_PROTOCOL: DRUGMATRIX: Acetylcholinesterase enzyme inhibition (substrate: acetylthiocholine)
- Assay type: cell-based, HEK293
- RUN_CONDITIONS: Not Active = under 50% inhibition at 10 µM; read-out: IC50
pIC50: −log10 of the molar value.

| MOLECULE | pIC50 |
| --- | --- |
| CN(Cc1ccc(C(C)(C)C)cc1)Cc1cccc2ccccc12 | 5.16 |
| CC(C)N1CCN(c2ccc(OCC3COC(Cn4cncn4)(c4ccc(Cl)cc4Cl)O3)cc2)CC1 (centres undefined) | 4.67 |
| Cc1ccc2cc3c(ccc4ccccc43)c3c2c1CC3 | 4.64 |
| Cc1cc(C(C#N)c2ccc(Cl)cc2)c(Cl)cc1NC(=O)c1cc(I)cc(I)c1O (centres undefined) | 5.53 |

###

- EXPERIMENTAL_SYSTEM: 5-hydroxytryptamine receptor 2B (Homo sapiens, UniProt P41595); further: in other assays of this panel Not Active means under 50% inhibition at 10 µM
- Sequence (P41595 whole entry): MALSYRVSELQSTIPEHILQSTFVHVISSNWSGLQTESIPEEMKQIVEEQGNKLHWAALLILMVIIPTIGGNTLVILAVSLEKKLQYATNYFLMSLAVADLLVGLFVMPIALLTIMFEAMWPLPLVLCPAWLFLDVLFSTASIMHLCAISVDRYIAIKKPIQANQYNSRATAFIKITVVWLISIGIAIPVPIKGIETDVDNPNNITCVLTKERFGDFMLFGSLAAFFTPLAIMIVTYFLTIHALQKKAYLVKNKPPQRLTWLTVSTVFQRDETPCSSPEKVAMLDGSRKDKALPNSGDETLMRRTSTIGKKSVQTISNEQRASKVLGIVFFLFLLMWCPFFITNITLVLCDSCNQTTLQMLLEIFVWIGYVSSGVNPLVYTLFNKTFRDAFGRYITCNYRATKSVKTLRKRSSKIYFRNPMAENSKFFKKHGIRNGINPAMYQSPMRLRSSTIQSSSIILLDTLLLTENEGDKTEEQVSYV
- Type: cell membranes, CHO-K1, Membrane
- RUN_CONDITIONS: cho-k1

| SUBSTANCE | EXPERIMENTAL_SYSTEM | Ki |
| --- | --- | --- |
| LIPOPOLYSACCHARIDE E. COLI O55:B5 | 5-hydroxytryptamine receptor 2B (Homo sapiens, UniProt P41595) | Not Active |
| CADMIUM ACETATE | 5-hydroxytryptamine receptor 2B (Homo sapiens, UniProt P41595) | Not Active |
| SODIUM NITROPRUSSIDE | 5-hydroxytryptamine receptor 2B (Homo sapiens, UniProt P41595) | Not Active |
| LEAD (II) ACETATE | 5-hydroxytryptamine receptor 2B (Homo sapiens, UniProt P41595) | Not Active |

###

- ASSAY_PROTOCOL: DRUGMATRIX: GABAA, Flunitrazepam, Central radioligand binding (ligand: [3H] Flunitrazepam)
- Format: cell membranes, Rattus norvegicus, Wistar, Brain, Membrane
- RUN_CONDITIONS: Not Active = under 50% inhibition at 10 µM; read-out: Ki
pKi: −log10 of the molar value.
Entries and their pKi values follow.

| STRUCTURE_NOTATION | pKi |
| --- | --- |
| OCCN(CCO)c1nc(N2CCCCC2)c2nc(N(CCO)CCO)nc(N3CCCCC3)c2n1 | 6.51 |
| O=c1ncn2nc(Sc3ccc(F)cc3F)ccc2c1-c1c(Cl)cccc1Cl | 5.01 |

###

- EXPERIMENTAL_SYSTEM: Aldo-keto reductase family 1 member B1 (Rattus norvegicus); further: in other assays of this panel Not Active means under 50% inhibition at 10 µM;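 further: inhibition of aldose reductase enzyme activity, measured with DL-glyceraldehyde as the substrate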
- ASSAY_PROTOCOL: biochemical
- Format: tissue-based, Lens of camera-type eye

| COMPOUND | IC50 |
| --- | --- |
| NCCCCCC(=O)O [AMINOCAPROIC ACID] | Not Active |
| N[C@@H](Cc1cc(I)c(Oc2ccc(O)c(I)c2)c(I)c1)C(=O)O [LIOTHYRONINE] | Not Active |
| C=C(C)C1(O)OC(=O)C=C1OC (centres undefined) [PENICILLIC ACID] | Not Active |
| Cc1cc(C2CCCCC2)n(O)c(=O)c1 [CICLOPIROX] | Not Active |
| C[C@H]1c2cccc(O)c2C(=O)C2=C(O)[C@]3(O)C(=O)C(C(N)=O)=C(O)[C@@H](N(C)C)[C@@H]3[C@@H](O)[C@@H]21.O [DOXYCYCLINE] | Not Active |
| C=CCC1(C(C)CCC)C(=O)NC(=O)NC1=O (centres undefined) [SECOBARBITAL] | Not Active |
| CCCCc1nc(Cl)c(CO)n1Cc1ccc(-c2ccccc2-c2nnn[nH]2)cc1 [LOSARTAN] | Not Active |
| COc1nc(C)nc(Cl)c1NC1=NCCN1 [MOXONIDINE] | Not Active |
| Cc1ccc(N(CC2=NCCN2)c2cccc(O)c2)cc1 [PHENTOLAMINE] | Not Active |
